experimentSummary: Solvent solubility screen by solvent addition (lyophilized material)
Assay type: physicochemical
assayConditions: organic solvent or mixture, thermodynamic from solid; 1,4-dioxane, 1-butanol, 2-methyl THF, 95% 2-propanol/5% water, acetone, acetonitrile, 95% acetonitrile/5% water, chloroform, DCM, DMSO, ethyl acetate (dry), ethanol, isopropyl acetate, methanol, MEK, MIBK, DMF, DMA, THF, 95% methanol/5% water; read-out: Solubility (solvent addition)
measuredQuantity: solubility

Reported solubility for CC(=O)c1nn(CC(=O)N2[C@H](C(=O)Nc3nc(Br)ccc3C)C[C@@]3(C)C[C@@H]23)c2ccc(-c3cnc(C)nc3)cc12 [Lyophilized Compound 3] was ≥ 200 mg/mL

###

experimentSummary: Solubility in selected media (FaSSIF, FeSSIF, FaSSGF, pH 4 citrate, pH 6.8 phosphate)
Type: physicochemical
assayConditions: aqueous buffer, thermodynamic from solid; FaSSIF, FeSSIF, FaSSGF, pH 4 citrate and pH 6.8 phosphate; read-out: Solubility within selected media
measuredQuantity: solubility

Reported solubility for CC(=O)c1nn(CC(=O)N2[C@H](C(=O)Nc3nc(Br)ccc3C)C[C@@]3(C)C[C@@H]23)c2ccc(-c3cnc(C)nc3)cc12 [Compound 3 Form A] was < 10 µg/mL

###

experimentSummary: pH experiments and SIF/SGF/FaSSIF/FeSSIF solubility (Examples 3 and 4)
Assay type: physicochemical
assayConditions: FaSSIF; read-out: FaSSIF solubility
Consider the following molecules and their measured solubility readings.
# output: bare number, implied unit µg/mL

1. CC(=O)c1nn(CC(=O)N2[C@H](C(=O)Nc3nc(Br)ccc3C)C[C@@]3(C)C[C@@H]23)c2c(C)cc(-c3cnc(C)nc3)cc12 ... 2.6

Continue with the molecule presented below.
Reported solubility for CC(=O)c1nn(CC(=O)N2[C@H](C(=O)Nc3nc(Br)ccc3C)C[C@@]3(C)C[C@@H]23)c2ccc(-c3cnc(C)nc3)cc12 was 75.4

###

experimentSummary: Solubility in selected media (FaSSIF, FeSSIF, FaSSGF, pH 4 citrate, pH 6.8 phosphate)
Assay type: physicochemical
assayConditions: pH 6.8 phosphate buffer, pH 6.8, aqueous buffer, thermodynamic from solid; read-out: Solubility
measuredQuantity: solubility

Reported solubility for CC(=O)c1nn(CC(=O)N2[C@H](C(=O)Nc3nc(Br)ccc3C)C[C@@]3(C)C[C@@H]23)c2ccc(-c3cnc(C)nc3)cc12 [Compound 3 Form A] was < 10 µg/mL

###

experimentSummary: Solvent solubility screen by solvent addition (lyophilized material)
Format: physicochemical
assayConditions: 2-propanol/heptane mixtures, organic solvent or mixture, thermodynamic from solid; 2-propanol, 95% 2-propanol/5% heptane, 70% 2-propanol/30% heptane, toluene; elevated temperatures (40° C.); read-out: Solubility (solvent addition), dissolution at elevated temperatures
measuredQuantity: solubility

Reported solubility for CC(=O)c1nn(CC(=O)N2[C@H](C(=O)Nc3nc(Br)ccc3C)C[C@@]3(C)C[C@@H]23)c2ccc(-c3cnc(C)nc3)cc12 [Lyophilized Compound 3] was > 200 mg/mL

###

experimentSummary: Enabling form study: solubility from RT slurry in solvents (Table 2)
Format: physicochemical
assayConditions: organic solvent or mixture, thermodynamic from solid, Toluene
measuredQuantity: solubility

Reported solubility for CC(=O)c1nn(CC(=O)N2[C@H](C(=O)Nc3nc(Br)ccc3C)C[C@@]3(C)C[C@@H]23)c2ccc(-c3cnc(C)nc3)cc12 [Compound 3] was ~13.6 mg/mL

All figures here come from patent US11807627B2.
